Each recorded value in this set is attributed to paper PMC10397247.

# measured-target: T1, O2-bH
# T1 chain: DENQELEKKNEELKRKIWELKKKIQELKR
# test-details: two-hybrid library CCNG1;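 note: natural log of median RNA to DNA barcode read ratio; higher means stronger binding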
readout: interaction score

{"binder": "DKNQELKKENEELEREIWELEKEIQELER [O1-bH]", "interaction score": -0.214}
{"binder": "DEIQELEKKIEELKRKNWELKKKNQELKR [O12-bH]", "interaction score": -1.26}
{"binder": "DKNQELKKENEELERKIWELKKKIQELKR [O10-bH]", "interaction score": 0.103}
{"binder": "DEIQELEKENEELERKIWELKKENQELER [O15-bH]", "interaction score": -0.549}
{"binder": "DKIQELKKEIEELERENWELEKENQELER [O11-bH]", "interaction score": -1.24}

a = DKIQELKKKNEELKREIWELEKKNQELKR [O16-bH]
b = DKNQELKKKIEELKRKNWELKKEIQELER [O13-bH]
Prompt: Of the two listed items, which has the higher interaction score? First: a Second: b Bench note: the answer is the label of the chosen record.
Completion: a
